Target: T1, native mouse MET on living mouse cells (mouse, UniProt P16056 25-1379)
T1 construct: whole, on cells; also called Mouse cells (MLP29)
Assay: flow cytometry, MLP29 cells
Overview of recorded EMAX (% relative to control) for various binders
measurement label: EMAX (% relative to control) (%)

chimeric llama-human IgG1 mAb 76G7 (antibody, V domains shown) VH: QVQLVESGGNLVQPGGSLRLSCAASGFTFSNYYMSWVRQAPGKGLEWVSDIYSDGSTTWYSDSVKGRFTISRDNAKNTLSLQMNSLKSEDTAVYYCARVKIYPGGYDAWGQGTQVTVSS VL: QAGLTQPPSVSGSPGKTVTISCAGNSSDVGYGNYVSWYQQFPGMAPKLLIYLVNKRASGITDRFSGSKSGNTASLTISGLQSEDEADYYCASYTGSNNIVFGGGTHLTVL | 115
chimeric llama-human IgG1 mAb 71G2 (antibody, V domains shown) VH: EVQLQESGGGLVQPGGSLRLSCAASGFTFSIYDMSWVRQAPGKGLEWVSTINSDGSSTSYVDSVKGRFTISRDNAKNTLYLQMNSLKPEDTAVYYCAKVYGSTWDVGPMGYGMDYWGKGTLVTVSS VL: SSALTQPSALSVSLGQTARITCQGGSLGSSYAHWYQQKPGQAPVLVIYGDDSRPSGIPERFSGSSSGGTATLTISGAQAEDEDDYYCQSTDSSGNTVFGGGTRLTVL | 130
